molecular target: human cannabinoid receptor 1 (huCB1), full length, expressed on cells (human, UniProt P21554 1-472); experiment: cell-based or functional assay
Sequence (P21554 whole entry): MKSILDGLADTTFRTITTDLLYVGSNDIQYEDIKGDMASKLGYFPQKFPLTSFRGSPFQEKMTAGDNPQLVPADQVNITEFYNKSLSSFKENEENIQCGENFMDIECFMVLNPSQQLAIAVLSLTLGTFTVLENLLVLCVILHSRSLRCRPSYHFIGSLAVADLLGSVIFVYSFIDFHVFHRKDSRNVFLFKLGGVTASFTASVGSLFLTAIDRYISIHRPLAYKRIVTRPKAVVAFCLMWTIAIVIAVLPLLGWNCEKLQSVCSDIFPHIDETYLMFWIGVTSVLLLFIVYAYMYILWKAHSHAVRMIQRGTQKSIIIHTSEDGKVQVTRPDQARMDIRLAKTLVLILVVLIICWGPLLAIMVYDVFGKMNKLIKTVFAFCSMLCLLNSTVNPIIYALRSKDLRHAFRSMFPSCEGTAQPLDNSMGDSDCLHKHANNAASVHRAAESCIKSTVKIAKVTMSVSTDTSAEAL
value.type: n = 1 IC50, -fold vs Rimo

Study these solved cases before continuing.
| binder | value.type | recorded.measurement |
| --- | --- | --- |
| LIBC527879-1 (antibody, V domains shown) VH: QVQLQESGPGLVKPSQTLSLTCTVSGGSIRRGGDYWGWIRQHPGKGLEWIGHIYQSGSTNYNPKLKSRATISVDTYKNQFSLKLSSVTAADTAVYYCARDYDIFTGYSYYYYGMDVWGQGTTVTVSS VL: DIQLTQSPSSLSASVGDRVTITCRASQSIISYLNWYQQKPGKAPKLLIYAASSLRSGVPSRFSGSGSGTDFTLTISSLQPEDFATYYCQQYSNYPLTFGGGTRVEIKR | n = 1 IC50, -fold vs Rimo | 1.45 fold vs Rimonabant |
| LIBC527997-1 (antibody, V domains shown, Expressed as IgG1 SEFL2 mAb) VH: QVQLQESGPGLVKPSQTLSLTCTVSGGSIRRGGDYWAWIRQHPGKGLEWIGHIYQTGSTNYNPRFKGRATISVNTYKNQFSLKLSSVTAADTAVYYCARNYDTLTGYSYYYYGMDVWGQGTTVTVSS VL: DIQMTQSPSSLSASVGDRVTITCRASQSISNYLNWYQQKPGKAPKLLIYAASSLHSGVPSRFSGSGSGTDFTLTISSLQPEDFASYYCQQYQSYPLTFGQGTKVEIKR | n = 1 IC50, -fold vs Rimo | 1.04 fold vs Rimonabant |

Shift focus to the following entry.
Request: Tell me the measured n = 1 IC50, -fold vs Rimo of LIBC527984-1 (antibody, V domains shown) VH: QVQLQESGPGLVKPSQTLSLTCTVSGGSIRRGGDYWSWIRQHPGKGLEWIGHIYQTGKTNYNPNFKSRATISVNTYKNQFSLKLSSVTAADTAVYYCARDYDILTGYSYYYYGMDVWGQGTTVTVSS VL: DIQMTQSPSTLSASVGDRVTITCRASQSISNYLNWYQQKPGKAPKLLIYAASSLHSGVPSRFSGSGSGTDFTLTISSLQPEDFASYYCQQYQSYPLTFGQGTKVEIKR , please.
Result: 1.72 fold vs Rimonabant
